# System: Staphylococcus epidermidis IO 83-58
# TEST_SUMMARY: in vitro antibacterial MIC, agar plate dilution
# Type: cell-based
# RECORDED_CONDITIONS: IO8358, 18 hours, 35° C., read-out: MIC
MEASUREMENT_KIND: MIC (µg/mL)

Some solved cases for reference:
MOLECULE: CCn1cc(C(=O)O)c(=O)c2c(F)c(F)c(N3CCSCC3)c(F)c21 [Example 89]
MIC (µg/mL): 0.5
//
MOLECULE: CCn1cc(C(=O)O)c(=O)c2c(F)c(F)c(N3CCN(C)CC3)c(F)c21 [Example 85]
MIC (µg/mL): 1
//
MOLECULE: CCn1cc(C(=O)O)c(=O)c2cc(F)c(N3CCNC(c4ccc(C)s4)C3)cc21 (centres unmarked) [Example 37]
MIC (µg/mL): 0.5

I = CCn1cc(C(=O)O)c(=O)c2cc(F)c(N3CCNC(CF)C3)c(F)c21 (racemic) [Example 63]
II = CN1CCN(c2cc3c(cc2F)c(=O)c(C(=O)O)cn3C2CC2)CC1c1ccsc1 (centres unmarked) [Example 66]
III = CCn1cc(C(=O)O)c(=O)c2cc(F)c(N3CCNC(c4sc5ccccc5c4C)C3)cc21 (centres unmarked) [Example 22]
Prompt: Rank order required: MIC, descending. Answer format: the labels, in the requested order.
Completion: III, I, II
(III: 8 µg/mL, I: 0.25 µg/mL, II: 0.06 µg/mL)

###

# Test system: Staphylococcus aureus VGH 84-45
# TEST_SUMMARY: in vitro antibacterial MIC, agar plate dilution
# Format: cell-based
# RECORDED_CONDITIONS: Staphylococcus aureus, VGH8445, 18 h, 35° C., read-out: MIC
MEASUREMENT_KIND: MIC (µg/mL)

COMPOUND: CCn1cc(C(=O)O)c(=O)c2c(F)c(F)c(N3CCSCC3)c(F)c21
VALUE_REPORTED: 0.25

I = CCn1cc(C(=O)O)c(=O)c2cc(F)c(N3CCN(C)C(c4sc5ccccc5c4C)C3)cc21 (stereo not drawn)
II = CCn1cc(C(=O)O)c(=O)c2cc(F)c(N3CCNC(c4sc5ccccc5c4C)C3)cc21 (stereo not drawn)
Prompt: Lab note: record which item had the higher MIC, I or II . The response must carry the label of the picked entry.
Completion: I
(I: 256 µg/mL, II: 2 µg/mL)

1 = O=C(O)c1cn(C2CC2)c2cc(N3CCNC(c4cc[nH]n4)C3)c(F)cc2c1=O (stereo not drawn)
2 = CN1CCN(c2c(F)c(F)c3c(=O)c(C(=O)O)cn(C4CC4)c3c2F)CC1
3 = CCn1cc(C(=O)O)c(=O)c2cc(F)c(N3CCNC(c4cccnc4)C3)cc21 (stereo not drawn)
4 = O=C(O)c1cn(-c2ccc(F)cc2)c2cc(N3CCNC(c4ccco4)C3)c(F)cc2c1=O (stereo not drawn)
Prompt: Rank order required: MIC, descending. Answer format: the labels, in the requested order.
Completion: 1, 3, 2, 4
(1: 0.5 µg/mL, 3: 0.25 µg/mL, 2: 0.12 µg/mL, 4: 0.03 µg/mL)

a = CCn1cc(C(=O)O)c(=O)c2cc(F)c(N3CCNC(c4ccncc4)C3)cc21 (stereo not drawn)
b = CCn1cc(C(=O)O)c(=O)c2cc(F)c(N3CCNC(CF)C3)c(F)c21 (single isomer, unassigned; (-)) [Example 64]
Prompt: Quick one: lower MIC, a or b ? The response must carry the label of the picked entry.
Completion: b

###

# System: Klebsiella oxytoca MOR 84-28
# TEST_SUMMARY: in vitro antibacterial MIC, agar plate dilution
# Assay type: cell-based
# RECORDED_CONDITIONS: MOR8428, 18 hours, 35° C.
MEASUREMENT_KIND: MIC (µg/mL)

Some solved cases for reference:
COMPOUND: CCn1cc(C(=O)O)c(=O)c2cc(F)c(N3CCNC(c4ccsc4)C3)cc21 (stereo not shown)
MEASUREMENT_KIND: MIC
VALUE_REPORTED: 0.5
//
COMPOUND: CCCCCCOCC1CN(c2cc3c(cc2F)c(=O)c(C(=O)O)cn3CC)CCN1C (stereo not shown)
MEASUREMENT_KIND: MIC
VALUE_REPORTED: 64
//
COMPOUND: CCn1cc(C(=O)O)c(=O)c2cc(F)c(N3CCNC(c4ccco4)C3)cc21 (stereo not shown)
MEASUREMENT_KIND: MIC
VALUE_REPORTED: 0.5

I = CCn1cc(C(=O)O)c(=O)c2cc(F)c(N3CCNC(c4ccc(C)s4)C3)cc21 (stereo not shown)
II = CN1CCN(c2cc3c(cc2F)c(=O)c(C(=O)O)cn3C2CC2)CC1c1ccsc1 (stereo not shown)
III = CCCCCCOCC1CN(c2cc3c(cc2F)c(=O)c(C(=O)O)cn3CC)CCN1 (stereo not shown)
IV = CCn1cc(C(=O)O)c(=O)c2c(F)c(F)c(N3CCSCC3)c(F)c21
Prompt: Rank order required: MIC, descending. Answer format: the labels, in the requested order.
Completion: III, IV, I, II
(III: 8 µg/mL, IV: 2 µg/mL, I: 1 µg/mL, II: 0.12 µg/mL)

###

# Test system: Staphylococcus epidermidis IO 83-58
# TEST_SUMMARY: in vitro antibacterial MIC, agar plate dilution
# Format: cell-based
# RECORDED_CONDITIONS: IO8358, 18 hours, 35° C., read-out: MIC
# Description: The in vitro antimicrobial spectrum of the compounds of ths invention were determined by the agar plate dilution method with Mueller-Hinton agar and an inoculum of each test organism of approximately 10^4 colony forming units delivered by the Steers replicating device. The minimal inhibitory concentration (MIC) in mcg/ml is defined as the lowest concentration of test compound that inhibited visible growth after 18 hours incubation at 35° C. […]
MEASUREMENT_KIND: MIC (µg/mL)

a = CCCCCCCCCCCCOCC1CN(c2cc3c(cc2F)c(=O)c(C(=O)O)cn3CC)CCN1 (stereo not shown)
b = CCn1cc(C(=O)O)c(=O)c2cc(F)c(N3CCNC(CNC)C3)cc21.Cl.Cl (stereo not shown)
c = CCCCCCOCC1CN(c2cc3c(cc2F)c(=O)c(C(=O)O)cn3CC)CCN1 (stereo not shown)
Prompt: Put the entries in order of MIC, starting with the largest number. Answer format: the labels, in the requested order.
Completion: a, b, c

###

# Test system: Serratia marcescens K 84-18
# TEST_SUMMARY: in vitro antibacterial MIC, agar plate dilution
# Format: cell-based
# RECORDED_CONDITIONS: Serratia marcescens, K8418, 18 h, 35° C., read-out: MIC
# Protocol: The in vitro antimicrobial spectrum of the compounds of ths invention were determined by the agar plate dilution method with Mueller-Hinton agar and an inoculum of each test organism of approximately 10^4 colony forming units delivered by the Steers replicating device. The minimal inhibitory concentration (MIC) in mcg/ml is defined as the lowest concentration of test compound that inhibited visible growth after 18 hours incubation at 35° C. […]
MEASUREMENT_KIND: MIC (µg/mL)

COMPOUND: CCn1cc(C(=O)O)c(=O)c2cc(F)c(N3CCN(C)CC3)c(F)c21 [Example 61]
MEASUREMENT_KIND: MIC
VALUE_REPORTED: 0.06

A = CCn1cc(C(=O)O)c(=O)c2cc(F)c(N3CCN(C)C(c4ccn(C)n4)C3)cc21 (centres unmarked) [Example 109]
B = CCn1cc(C(=O)O)c(=O)c2c(F)c(F)c(N3CCSCC3)c(F)c21 [Example 89]
C = CCn1cc(C(=O)O)c(=O)c2cc(F)c(N3CCNC(c4ccoc4)C3)cc21 (centres unmarked) [Example 94]
D = O=C(O)c1cn(C2CC2)c2cc(N3CCNC(c4ccoc4)C3)c(F)cc2c1=O (centres unmarked) [Example 92]
E = CCn1cc(C(=O)O)c(=O)c2c(F)c(F)c(N3CCNC(c4ccsc4)C3)c(F)c21 (centres unmarked) [Example 90]
Prompt: Rank order required: MIC, descending. Answer format: the labels, in the requested order.
Completion: A, B, E, C, D

###

# Test system: Streptococcus faecalis ATTC 29212
# TEST_SUMMARY: in vitro antibacterial MIC, agar plate dilution
# Format: cell-based
# RECORDED_CONDITIONS: Enterococcus faecalis, ATTC29212, 18 hours, 35° C., read-out: MIC
MEASUREMENT_KIND: MIC (µg/mL)

MOLECULE: CCn1cc(C(=O)O)c(=O)c2cc(F)c(N3CCN(C)C(CF)C3)cc21 (stereo not shown)
VALUE_REPORTED: 8

I = CCn1cc(C(=O)O)c(=O)c2c(F)c(F)c(N3CCN(C)CC3)c(F)c21
II = CCn1cc(C(=O)O)c(=O)c2cc(F)c(N3CCNC(c4ccco4)C3)cc21 (stereo not shown)
Prompt: Lab note: record which item had the higher MIC, I or II . The response must carry the label of the picked entry.
Completion: I
